# assay_system: FGFR2 (Homo sapiens, UniProt P21802)
# Sequence (P21802 22-821): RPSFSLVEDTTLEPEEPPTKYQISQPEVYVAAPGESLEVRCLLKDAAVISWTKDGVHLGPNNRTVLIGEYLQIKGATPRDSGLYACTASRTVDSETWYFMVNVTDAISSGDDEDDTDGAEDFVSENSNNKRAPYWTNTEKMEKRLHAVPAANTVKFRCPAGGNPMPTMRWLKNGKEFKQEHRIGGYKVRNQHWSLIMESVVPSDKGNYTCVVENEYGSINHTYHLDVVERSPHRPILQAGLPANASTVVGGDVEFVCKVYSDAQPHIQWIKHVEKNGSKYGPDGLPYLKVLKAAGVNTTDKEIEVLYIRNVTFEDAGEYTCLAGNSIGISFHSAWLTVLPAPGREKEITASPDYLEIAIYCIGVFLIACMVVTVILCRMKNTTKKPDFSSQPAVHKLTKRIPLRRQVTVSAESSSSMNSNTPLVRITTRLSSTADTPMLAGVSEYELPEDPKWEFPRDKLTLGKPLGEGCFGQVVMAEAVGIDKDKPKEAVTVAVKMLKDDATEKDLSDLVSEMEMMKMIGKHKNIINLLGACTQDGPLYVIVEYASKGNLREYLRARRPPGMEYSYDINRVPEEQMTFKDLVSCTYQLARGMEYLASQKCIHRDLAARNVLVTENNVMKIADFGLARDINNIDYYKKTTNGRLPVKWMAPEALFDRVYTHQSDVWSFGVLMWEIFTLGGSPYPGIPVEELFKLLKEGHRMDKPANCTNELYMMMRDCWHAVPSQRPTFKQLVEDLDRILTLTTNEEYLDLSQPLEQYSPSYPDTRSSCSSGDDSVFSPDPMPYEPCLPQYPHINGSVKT
# protocol: FGFR2 Kinase Protocol - Condition 1 (Reaction Biology HotSpot radiometric kinase assay)
# Assay type: biochemical
# experimental_setup: 20-min incubation of compound with kinase before ATP; poly[Glu:Tyr] (4:1) 0.2 mg/ml; ATP 100 micromolar; 2 hr room temperature
pIC50: −log10 of the molar value.
Consider the following compounds; for each one, report its pIC50.

# smi, pIC50
measured = [
    ("C=CC(=O)N1C[C@@H](n2nc(C#Cc3ccc4c(c3)nc(C)n4C3CC3)c3c(N)ncnc32)C[C@@H]1COC", "≥ 7.00"),
    ("C=CC(=O)N1C[C@@H](n2nc(C#Cc3ccc4c(c3)nc(C)n4CC)c3c(N)ncnc32)C[C@@H]1COC", "≥ 7.00"),
    ("C=CC(=O)N1C[C@@H](n2nc(C#Cc3ccc4[nH]nnc4c3)c3c(N)ncnc32)C[C@@H]1COC", "≥ 7.00"),
    ("C=CC(=O)N1C[C@@H](n2nc(C#Cc3c(F)cc4nc(C)[nH]c4c3F)c3c(N)nccc32)C[C@@H]1COC", "≥ 7.00"),
    ("C=CC(=O)N1C[C@@H](n2nc(C#Cc3c(F)cc4c(nc(C)n4C)c3F)c3c(N)ncnc32)C[C@@H]1COC", "≥ 7.00"),
    ("C=CC(=O)N1C[C@@H](n2nc(C#Cc3ccc4c(c3)ncn4C)c3c(N)ncnc32)C[C@@H]1COC", "≥ 7.00"),
]

Hi team, please reply with pIC50 for each item in this list.
1. C=CC(=O)N1C[C@@H](n2cc(C#Cc3ccc4nc(C)[nH]c4c3)c3c(N)ncnc32)C[C@@H]1COC
2. C=CC(=O)N1C[C@@H](n2cc(C#Cc3ccc4c(c3)ncn4C3CC3)c3c(N)nccc32)C[C@@H]1COC
3. C=CC(=O)N1C[C@@H](n2nc(C#Cc3ccc4[nH]c(C)nc4c3)c3c(N)ncnc32)C[C@@H]1COC
4. C=CC(=O)N1C[C@@H](n2nc(C#Cc3ccc4[nH]cnc4c3)c3c(N)ncnc32)C[C@@H]1COC
5. C=CC(=O)N1C[C@@H](n2nc(C#Cc3ccc4[nH]c(C)nc4c3)c3c(N)nccc32)C[C@@H]1COC
6. C=CC(=O)N1C[C@@H](n2nc(C#Cc3ccc4nc(C)n(C)c4c3)c3c(N)ncnc32)C[C@@H]1COC

1: ≥ 7.00; 2: ≥ 7.00; 3: ≥ 7.00; 4: ≥ 7.00; 5: ≥ 7.00; 6: ≥ 7.00

Name the value of pIC50 reported for C=CC(=O)N1C[C@@H](n2nc(C#Cc3ccc4c(c3)ncn4CC)c3c(N)nccc32)C[C@@H]1COC when tested on FGFR2 (Homo sapiens, UniProt P21802).
≥ 7.00
